B1: library; numbered along this chain (parent)
chain: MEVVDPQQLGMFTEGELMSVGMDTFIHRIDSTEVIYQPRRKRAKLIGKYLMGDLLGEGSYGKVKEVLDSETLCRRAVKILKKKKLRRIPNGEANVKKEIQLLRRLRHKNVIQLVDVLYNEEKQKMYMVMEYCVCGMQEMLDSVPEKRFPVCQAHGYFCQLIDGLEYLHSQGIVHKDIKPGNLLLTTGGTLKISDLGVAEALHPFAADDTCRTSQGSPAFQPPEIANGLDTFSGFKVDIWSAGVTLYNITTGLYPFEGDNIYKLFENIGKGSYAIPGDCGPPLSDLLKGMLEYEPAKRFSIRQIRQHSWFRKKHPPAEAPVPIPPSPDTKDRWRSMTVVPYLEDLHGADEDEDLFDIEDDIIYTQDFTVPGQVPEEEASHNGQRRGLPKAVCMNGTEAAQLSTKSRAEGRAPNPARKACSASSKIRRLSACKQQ

variants of: B1; experiment: STK11 functional score (HeLa growth suppression), rescaled enrichment; synonymous median = 1, nonsense median = 0 (normalised score); details: with HeLa; variant type: missense
endpoint_name: STK11 functional score
# answer = number (no unit)

variant_name: I88Q
STK11 functional score: -0.36
--
variant_name: C210K
STK11 functional score: 1.3
--
variant_name: G394I
STK11 functional score: 1.51

// STK11 functional score value for G370D : 1.24

// STK11 functional score value for E223S : 0.551

// STK11 functional score value for K64W : 1.39

// STK11 functional score value for R415L : 1.61

// STK11 functional score value for D208C : 1.26

// STK11 functional score value for C210A : 1.33

// STK11 functional score value for E14V : 1.03

// STK11 functional score value for L290E : -0.387

// STK11 functional score value for I111L : 0.392

// STK11 functional score value for F231W : 0.409

// STK11 functional score value for D208I : 1.31

// STK11 functional score value for K287H : 1.3

// STK11 functional score value for A218C : 0.947

// STK11 functional score value for T189G : 0.924
